FYI, the data here is from patent US12036298B2.

Experiment: physchem
Type: physicochemical
Conditions: 20 °C, pH 7, aqueous buffer
readout: solubility

{"columns": ["compound string", "result value"],
 "data": [
  ["O=C(O)/C=C/c1ccc(O)cc1", "~345 mg/mL"]
]}
